Molecular target: Metabotropic glutamate receptor 5 (Homo sapiens)
Sequence (P41594 21-1212 limits assumed): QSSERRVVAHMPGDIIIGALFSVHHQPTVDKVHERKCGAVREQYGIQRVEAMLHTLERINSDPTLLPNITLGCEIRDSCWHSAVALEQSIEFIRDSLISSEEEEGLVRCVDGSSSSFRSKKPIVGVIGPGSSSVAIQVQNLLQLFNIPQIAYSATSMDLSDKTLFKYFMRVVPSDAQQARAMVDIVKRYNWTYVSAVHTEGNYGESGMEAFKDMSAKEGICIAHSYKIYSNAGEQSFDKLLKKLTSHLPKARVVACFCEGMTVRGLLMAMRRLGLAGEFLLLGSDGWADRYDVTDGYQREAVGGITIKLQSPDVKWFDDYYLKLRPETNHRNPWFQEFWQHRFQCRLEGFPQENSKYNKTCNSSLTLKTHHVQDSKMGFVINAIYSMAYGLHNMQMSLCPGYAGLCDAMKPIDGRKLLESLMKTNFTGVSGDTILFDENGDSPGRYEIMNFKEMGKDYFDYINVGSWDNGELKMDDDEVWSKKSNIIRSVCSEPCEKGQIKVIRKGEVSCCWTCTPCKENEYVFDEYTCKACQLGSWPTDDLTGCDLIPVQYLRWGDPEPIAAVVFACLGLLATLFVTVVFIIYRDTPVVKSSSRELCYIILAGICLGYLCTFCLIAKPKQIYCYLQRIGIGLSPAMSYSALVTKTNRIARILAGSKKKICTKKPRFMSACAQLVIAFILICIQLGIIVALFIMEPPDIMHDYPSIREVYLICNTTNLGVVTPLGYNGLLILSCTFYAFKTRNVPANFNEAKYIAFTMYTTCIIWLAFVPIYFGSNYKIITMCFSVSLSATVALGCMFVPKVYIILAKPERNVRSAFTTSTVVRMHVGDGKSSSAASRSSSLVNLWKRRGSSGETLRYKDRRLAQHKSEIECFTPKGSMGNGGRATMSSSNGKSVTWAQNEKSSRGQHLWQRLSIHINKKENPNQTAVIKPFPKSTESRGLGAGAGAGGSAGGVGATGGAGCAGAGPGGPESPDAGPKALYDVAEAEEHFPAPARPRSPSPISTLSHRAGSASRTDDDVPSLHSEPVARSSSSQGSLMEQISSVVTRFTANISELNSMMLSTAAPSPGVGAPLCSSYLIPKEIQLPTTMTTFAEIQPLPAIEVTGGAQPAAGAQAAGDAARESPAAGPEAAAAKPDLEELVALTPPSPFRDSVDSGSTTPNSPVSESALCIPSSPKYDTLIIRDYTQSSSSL
Experiment: Positive allosteric modulation of human mGluR5 expressed in recombinant HEK293 cells by FLIPR assay
Format: cell-based
Set-up: concentration or dose not given beside the values
MEASUREMENT NAME: Activity
// unit must come after the numeric part

Use the examples below as a reference point.
Can you look up Activity on Metabotropic glutamate receptor 5 (Homo sapiens) for CC1CCC(C(=O)N2CC(c3nc(-c4cccc(F)c4)no3)C2)CC1 (centres undefined) ?
11%

Observed Activity on Metabotropic glutamate receptor 5 (Homo sapiens) for Cc1cccc(-c2noc(C3CN(C(=O)C4CCCC(C)C4)C3)n2)c1 (centres undefined) , please.
19%

Provide the documented Activity with Metabotropic glutamate receptor 5 (Homo sapiens) as the system for O=C(C1CCCCC1)N1CC(c2nc(-c3cccc(F)c3)no2)C1
19%

Consider the following items and state reported Activity for each.
1. O=C(C1CCC2(CCC2)CC1)N1CC(c2nc(-c3cccc(Cl)c3)no2)C1
2. O=C(Cc1cccc(F)c1)N1CC[C@H]1c1nc(-c2cccc(F)c2)no1
3. CC1CCC(C(=O)N2CC(c3nc(-c4cccc(Cl)c4)no3)C2)CC1 (centres undefined)

1: 24%; 2: 75%; 3: 120%

Look at each compound and report its Activity.
1. Cc1cccc(-c2noc([C@@H]3CCN3C(=O)Cc3ccc(F)cc3)n2)c1
2. O=C(C1CCC(C(F)(F)F)CC1)N1CC(c2nc(-c3cccc(F)c3)no2)C1 (centres undefined)

1: 30%; 2: 37%

Value sought for every listed compound: Activity.
1. O=C(C1CCCCC1)N1CC(c2nc(-c3cccc(Cl)c3)no2)C1
2. O=C(C1CCC(C(F)(F)F)CC1)N1CC(c2nc(-c3cccc(Cl)c3)no2)C1 (centres undefined)
3. O=C(c1ccc(F)cc1)N1CC(c2nc(-c3cccc(F)c3)no2)C1

["35%", "5%", "6%"]

Quick request: Activity for each listed item, please.
1. Cc1cccc(-c2noc(C3CN(C(=O)c4ccc(Cl)cc4)C3)n2)c1
2. Cc1ccc(C(=O)N2CC(c3nc(-c4cccc(F)c4)no3)C2)cc1
3. Cc1cccc(-c2noc(C3CN(C(=O)C4CCC(C)CC4)C3)n2)c1 (centres undefined)

6.3%
30%
49%
